B1: ZER1 (parent)
chain: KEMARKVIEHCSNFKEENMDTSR

Variants of: B1
protocol: protein stability index of a GFP-peptide fusion (GPS, HEK-293T) (PSI 1-6); higher = more stable;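 further: lentivirally expressed fusions sorted by FACS into six bins by GFP to DsRed ratio, PSI derived from sequencing read proportions per bin multiplied by bin number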
condition.context: c terminus: native
reported.endpoint: protein stability index
The answer should be a number; do not append a unit.

Query: Sample N13C — what was its protein stability index?
Reply: 3.04

Query: Sample D20R — what was its protein stability index?
Reply: 2.13

Query: Sample R23K — what was its protein stability index?
Reply: 5.27

Query: Sample E16M — what was its protein stability index?
Reply: 2.68

Query: Sample I8C — what was its protein stability index?
Reply: 4.42

Query: Sample S22F — what was its protein stability index?
Reply: 3.72

Query: Sample F14H — what was its protein stability index?
Reply: 4.8
